System: protease according to SEQ ID NO: 3
Assay: Relative proteolytic activity with reversible inhibitor in liquid surfactant preparation (Example 1)
Assay type: biochemical
Details: Table 1; 4-FPBA in amount inhibiting starting enzyme by 20-40%; 50% conc. surfactant preparation, 0.92 mM AAPF, 25° C., pH 8.6; relative to same protease without inhibitor
From the text: The relative activity to be determined in process step c) of the hydrolytic enzyme modified in process step b) is given by [measured activity of the hydrolytic enzyme modified in process step b) in the presence of the component that stabilizes the hydrolytic enzyme] divided by [measured activity of the hydrolytic enzyme modified in process step b) in the absence of the component that stabilizes the hydrolytic enzyme] multiplied by 100. […]

molecule	relative activity, 4-FPBA (%)
S166A: protease of SEQ ID NO: 3 with amino acid substitution S166A in the count according to SEQ ID NO: 1 (protein, listed as Bacillus lentus) AQSVPWGISRVQAPAAHNRGLTGSGVKVAVLDTGISTHPDLNIRGGASFVPGEPSTQDGNGHGTHVAGTIAALNNSIGVLGVAPSAELYAVKVLGADGEGAISSIAQGLEWAGNNGMHVANLSLGSPSPSATLEQAVNSATSRGVLVVAASGNSGASSIAYPARYANAMAVGATDQNNNRASFSQYGAGLDIVAPGVNVQSTYPGSTYASLNGTSMATPHVAGAAALVKQKNPSWSNVQIRNHLKNTATSLGSTNLYGSGLVNAEAATR	61
S166Y: protease of SEQ ID NO: 3 with amino acid substitution S166Y in the count according to SEQ ID NO: 1 (protein, listed as Bacillus lentus) AQSVPWGISRVQAPAAHNRGLTGSGVKVAVLDTGISTHPDLNIRGGASFVPGEPSTQDGNGHGTHVAGTIAALNNSIGVLGVAPSAELYAVKVLGADGEGAISSIAQGLEWAGNNGMHVANLSLGSPSPSATLEQAVNSATSRGVLVVAASGNSGASSIYYPARYANAMAVGATDQNNNRASFSQYGAGLDIVAPGVNVQSTYPGSTYASLNGTSMATPHVAGAAALVKQKNPSWSNVQIRNHLKNTATSLGSTNLYGSGLVNAEAATR	100
S166: protease according to SEQ ID NO: 3 used as the hydrolytic enzyme (starting enzyme) (protein, listed as Bacillus lentus) AQSVPWGISRVQAPAAHNRGLTGSGVKVAVLDTGISTHPDLNIRGGASFVPGEPSTQDGNGHGTHVAGTIAALNNSIGVLGVAPSAELYAVKVLGADGEGAISSIAQGLEWAGNNGMHVANLSLGSPSPSATLEQAVNSATSRGVLVVAASGNSGASSISYPARYANAMAVGATDQNNNRASFSQYGAGLDIVAPGVNVQSTYPGSTYASLNGTSMATPHVAGAAALVKQKNPSWSNVQIRNHLKNTATSLGSTNLYGSGLVNAEAATR	75
S166V: protease of SEQ ID NO: 3 with amino acid substitution S166V in the count according to SEQ ID NO: 1 (protein, listed as Bacillus lentus) AQSVPWGISRVQAPAAHNRGLTGSGVKVAVLDTGISTHPDLNIRGGASFVPGEPSTQDGNGHGTHVAGTIAALNNSIGVLGVAPSAELYAVKVLGADGEGAISSIAQGLEWAGNNGMHVANLSLGSPSPSATLEQAVNSATSRGVLVVAASGNSGASSIVYPARYANAMAVGATDQNNNRASFSQYGAGLDIVAPGVNVQSTYPGSTYASLNGTSMATPHVAGAAALVKQKNPSWSNVQIRNHLKNTATSLGSTNLYGSGLVNAEAATR	71
